B1: glmS ribozyme (parent)
chain: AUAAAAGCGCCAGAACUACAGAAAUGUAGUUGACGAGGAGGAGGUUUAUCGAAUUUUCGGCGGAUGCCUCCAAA

Variants of: B1
assay-protocol: self-cleavage kobs at 640 uM GlcN6P; higher = faster cleavage; RNA array
test-conditions: with glucosamine-6-phosphate
This sample holds only a part of the variants without activity.

| variant-notation | measurement-units | prefix-operator | self-cleavage kobs at 640 uM GlcN6P |
| --- | --- | --- | --- |
| C10A U46G | s⁻¹ | < | 1e-05 |
| A14G U56A C67A | s⁻¹ | = | 0.00567 |
| U31C A52C C71A | s⁻¹ | < | 1e-05 |
| C50G C71A | s⁻¹ | = | 0.000215 |
| A39U U45A | s⁻¹ | = | 0.0067 |
| G35C U55A | s⁻¹ | < | 1e-05 |
| A39C G59C | s⁻¹ | < | 1e-05 |
| A12C U30C A39U | s⁻¹ | = | 0.000221 |
| A15C U45C | s⁻¹ | = | 6.81e-05 |
| G13C U47A G59U C67G | s⁻¹ | < | 1e-05 |
| A48U U54A | s⁻¹ | = | 0.000113 |
